Tested on: Enterococcus faecalis ATCC29212
Assay: MIC, microbroth dilution (NCCLS)
Assay type: cell-based
Details: rifS strain, BHI Broth, 37° C., read-out: Antimicrobial activity (MIC)
outcome-measure: MIC

IN: Request the reported MIC associated with CON=C1CN(c2nc3c(cc2F)c(=O)c(C(=O)O)cn3C2CC2)CC1CNC1CCN(C2=C3NC(=O)/C(C)=C\C=C\[C@H](C)[C@H](O)[C@@H](C)[C@@H](O)[C@@H](C)[C@H](OC(C)=O)[C@H](C)[C@@H](OC)/C=C/O[C@@]4(C)Oc5c(C)c(O)c(c(c5C4=O)C2=O)C3=O)CC1 (mixture of isomers)
OUT: 2 to 32 µg/mL

IN: Request the reported MIC associated with COc1c(N2CCCC(NC3CCN(C4=C5NC(=O)/C(C)=C\C=C\[C@H](C)[C@H](O)[C@@H](C)[C@@H](O)[C@@H](C)[C@H](OC(C)=O)[C@H](C)[C@@H](OC)/C=C/O[C@@]6(C)Oc7c(C)c(O)c(c(c7C6=O)C4=O)C5=O)CC3)C2)c(F)cc2c(=O)c(C(=O)O)cn(C3CC3)c12 (mixture of isomers)
OUT: 2 to 32 µg/mL
